Provenance of the data: ChEMBL document CHEMBL5506074

tested-on: UniProt Q01959
Sequence (Q01959 whole entry): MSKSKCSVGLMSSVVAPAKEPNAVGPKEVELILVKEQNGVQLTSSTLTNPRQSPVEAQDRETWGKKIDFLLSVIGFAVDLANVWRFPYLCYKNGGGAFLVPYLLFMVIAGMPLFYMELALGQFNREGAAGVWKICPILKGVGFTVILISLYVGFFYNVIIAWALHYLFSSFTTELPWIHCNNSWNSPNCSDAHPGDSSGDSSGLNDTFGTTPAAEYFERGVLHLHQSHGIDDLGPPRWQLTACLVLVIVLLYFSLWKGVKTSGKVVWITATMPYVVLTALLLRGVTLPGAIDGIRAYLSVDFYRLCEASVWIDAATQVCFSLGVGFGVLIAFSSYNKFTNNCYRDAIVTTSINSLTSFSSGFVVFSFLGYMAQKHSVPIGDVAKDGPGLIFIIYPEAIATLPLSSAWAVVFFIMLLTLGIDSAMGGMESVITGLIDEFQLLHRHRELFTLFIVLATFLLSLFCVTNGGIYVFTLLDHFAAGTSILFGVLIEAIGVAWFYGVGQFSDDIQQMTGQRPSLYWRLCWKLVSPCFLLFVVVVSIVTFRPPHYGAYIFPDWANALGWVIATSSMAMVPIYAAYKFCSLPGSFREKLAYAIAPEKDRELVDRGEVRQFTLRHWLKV
procedure-details: Displacement of [3H] dopamine from DAT in HEK293 cells incubated for 1 hr by topcount plate reader analysis
Format: cell-based
measure-name: IC50 (nM)
A number alone suffices; assume nM.

Quick one: IC50 of c1ccc2c(CCC3NCCc4cc5c(cc43)OCO5)c[nH]c2c1 (stereo unspecified) ?
2150

---

System: HeLa
procedure-details: Cytotoxicity against human HeLa cells at 30 uM
Assay type: toxicity, cell-based
measure-name: Activity

[
  {
    "compound": "COc1cc2c(cc1O)CCN(CC1CCOCC1)C2CCc1c[nH]c2ccccc12 (configuration not stated)",
    "Activity": "Toxic"
  },
  {
    "compound": "COc1cc2c(cc1O)C(CCc1c[nH]c3ccccc13)N(CC1CCOCC1)CC2 (configuration not stated)",
    "Activity": "Toxic"
  },
  {
    "compound": "COc1cc2c(cc1OC)C(CCc1c[nH]c3ccc(O)cc13)N(CC1CCOCC1)CC2 (configuration not stated)",
    "Activity": "Toxic"
  },
  {
    "compound": "CN1CCC(CN2CCc3cc4c(cc3C2CCc2c[nH]c3ccccc23)OCO4)CC1 (configuration not stated)",
    "Activity": "Toxic"
  },
  {
    "compound": "c1cnc2[nH]cc(CCC3NCCc4cc5c(cc43)OCO5)c2c1 (configuration not stated)",
    "Activity": "Toxic"
  }
]

Quick one: Activity of Oc1cc2c(cc1O)C(CCc1c[nH]c3ccccc13)N(CC1CCOCC1)CC2 (configuration not stated) ?
Toxic

Quick one: Activity of c1ccc2c(CCC3c4cc5c(cc4CCN3CC3CCNCC3)OCO5)c[nH]c2c1 (configuration not stated) ?
Toxic
